Read-out: Vascular cell adhesion molecule 1 (VCAM1), VCAM1 (gene 7412)
measurement notes: BSK_hDFCGF_VCAM1: BioMAP Diversity Plus: hDFCGF Assay for Vascular cell adhesion molecule 1 (VCAM1) Biomarker Activity (AID 2283065)
measurement conditions: primary human foreskin fibroblasts; actives raise or lower the signal
Active and inactive are the calls of the source. The calls were made as follows: active = hit-call score of the fitted dose curve at least 0.9, where 1 is the maximum; inactive = score below 0.9.
Classes used: yes (1) = active, no (0) = inactive

1) CCOP(=S)(OCC)Oc1ccc([N+](=O)[O-])cc1 ... yes (1)
2) C=C(C)[C@H]1Cc2c(ccc3c2O[C@@H]2COc4cc(OC)c(OC)cc4[C@@H]2C3=O)O1 ... yes (1)
3) Nc1nc(N)nc(NC2CC2)n1 ... no (0)
4) CCOP(=O)(OCC)Oc1cc(C)nc(C(C)C)n1 ... no (0)
5) CC(C)N(C(=O)SCC(Cl)=C(Cl)Cl)C(C)C ... yes (1)
6) Nc1c(Cl)cc([N+](=O)[O-])cc1Cl ... no (0)
7) Cc1ccn2nc(S(=O)(=O)Nc3c(F)cccc3F)nc2n1 ... no (0)
8) CN(C)NC(=O)CCC(=O)O ... no (0)
9) C#CCC1=C(C)C(OC(=O)C2C(C=C(C)C)C2(C)C)CC1=O (configuration not stated) ... yes (1)
10) CCc1cccc(CC)c1N(COC)C(=O)CCl ... yes (1)
11) CCOP(=S)(Oc1cnc(C(C)(C)C)nc1)OC(C)C (configuration not stated) ... yes (1)
12) CCc1cnc(C2=NC(C)(C(C)C)C(=O)N2)c(C(=O)O)c1 (configuration not stated) ... no (0)

---

target of assay: Cellular tumor antigen p53 (Homo sapiens)
measurement notes: TOX21_p53_BLA_p5_ratio: Tox21 HCT-116 p53 Agonism Beta-lactamase Assay, Ratio, Phase 5 (AID 2283599)
Inconclusive results are not listed. Activity calls are given as the source filed them. The calls were made as follows: active = hit-call score of the fitted dose curve at least 0.9, where 1 is the maximum; inconclusive = response in the unintended direction; inactive = score below 0.9.
Possible outcomes: active, inactive

1. CC[C@H](C)[C@H]1O[C@]2(C=C[C@@H]1C)C[C@@H]1C[C@@H](C/C=C(\C)[C@@H](O[C@H]3C[C@H](OC)[C@@H](O[C@H]4C[C@H](OC)[C@@H](NC)[C@H](C)O4)[C@H](C)O3)[C@@H](C)/C=C/C=C3\CO[C@@H]4[C@H](O)C(C)=C[C@@H](C(=O)O1)[C@]34O)O2 ... active
2. CCCCOC(=O)[C@@H](C)Oc1ccc(Oc2ccc(C#N)cc2F)cc1 ... inactive
3. CC(Oc1cccc(Cl)c1)C(=O)O (stereo not drawn) ... inactive

---

Read-out: Cytochrome P450 (CYP1A2), CYP1A2 (gene 1544)
measurement notes: LTEA_HepaRG_CYP1A2: Life Technologies and Expression Analysis (LTEA) Assay for Cytochrome P450 (CYP1A2) using HepaRG (AID 2283479)
measurement conditions: mRNA level, 48 h; actives raise or lower the signal
Active and inactive are the calls of the source. The calls were made as follows: active = hit-call score of the fitted dose curve at least 0.9, where 1 is the maximum; inactive = score below 0.9.
Outcomes: yes (active), no (inactive)

1) COc1ccc(C(=CC(=O)N2CCOCC2)c2ccc(Cl)cc2)cc1OC ... no
2) CN(C)NC(=O)CCC(=O)O ... no
3) COc1cc(OC)nc(Sc2cccc(Cl)c2C(=O)O)n1 ... no
4) CC1=NNC(=O)N(/N=C/c2cccnc2)C1 ... yes
5) CCc1cccc(C)c1N(C(=O)CCl)C(C)COC (configuration not stated) ... no
6) CC(COc1ccc(Oc2ccccc2)cc1)Oc1ccccn1 (configuration not stated) ... yes
7) CCOP(=S)(OCC)OC(Cl)C(Cl)(Cl)Cl (configuration not stated) ... no

---

Read-out: Macrophage colony-stimulating factor (MCSF), CSF1 (gene 1435)
measurement notes: BSK_hDFCGF_MCSF: BioMAP Diversity Plus: hDFCGF Assay for Macrophage colony-stimulating factor (MCSF) Biomarker Activity (AID 2283060)
measurement conditions: primary human foreskin fibroblasts; actives raise or lower the signal
Calls of active or inactive are those of the source. Rule for the calls: active = hit-call score of the fitted dose curve at least 0.9, where 1 is the maximum; inactive = score below 0.9.
Outcome codes: label 1 for active, label 0 for inactive

1. CCOP(=O)(SC(C)CC)N1CCSC1=O (stereo unspecified) ... label 0
2. CCc1cnc(C2=NC(C)(C(C)C)C(=O)N2)c(C(=O)O)c1 (stereo unspecified) ... label 0
3. Nc1c(Cl)cc([N+](=O)[O-])cc1Cl ... label 0
4. CC(=NC#N)N(C)Cc1ccc(Cl)nc1 ... label 0
5. CSC1=N[C@@](C)(c2ccccc2)C(=O)N1Nc1ccccc1 ... label 0
6. CCCOCC(=Nc1ccc(Cl)cc1C(F)(F)F)n1ccnc1 ... label 1

---

Read-out: Monokine induced gamma interferon (MIG), CXCL9 (gene 4283)
measurement notes: BSK_SAg_MIG: BioMAP Diversity Plus: SAg Assay for Monokine induced gamma interferon (MIG) Biomarker Activity (AID 2283092)
measurement conditions: primary human HUVEC with PBMC; actives raise or lower the signal
The source made the active and inactive calls. Rule for the calls: active = hit-call score of the fitted dose curve at least 0.9, where 1 is the maximum; inactive = score below 0.9.
Possible outcomes: active, inactive

1) CC(C1CC1)C(O)(Cn1cncn1)c1ccc(Cl)cc1 (centres undefined) ... inactive
2) CCOP(=S)(OCC)Oc1cc(C)nc(C(C)C)n1 ... inactive
3) CCOP(=S)(OCC)SCCSCC ... inactive
4) CCCSP(=O)(OCC)Oc1ccc(Br)cc1Cl (centres undefined) ... active
5) S=C1NCCN1 ... inactive
6) CSc1nc(NC(C)C)nc(NC(C)C)n1 ... inactive
7) N#CSCSC#N ... active
8) Cc1ccn2nc(S(=O)(=O)Nc3c(F)cccc3F)nc2n1 ... inactive
9) CC1(C(=O)Nc2ccc(O)c(Cl)c2Cl)CCCCC1 ... inactive
10) CN(C)NC(=O)CCC(=O)O ... inactive
11) CCOP(=O)(SC(C)CC)N1CCSC1=O (centres undefined) ... inactive
12) CCOP(=O)(NC(C)C)Oc1ccc(SC)c(C)c1 (centres undefined) ... inactive
13) CNc1cnn(-c2cccc(C(F)(F)F)c2)c(=O)c1Cl ... inactive
14) CCc1cccc(C)c1N(C(=O)CCl)C(C)COC (centres undefined) ... inactive

---

Read-out: MYC, MYC (gene 4609)
measurement notes: LTEA_HepaRG_MYC: Life Technologies and Expression Analysis (LTEA) Assay for MYC using HepaRG (AID 2283518)
measurement conditions: mRNA level, 48 h; actives raise or lower the signal
The source made the active and inactive calls. The calls were made as follows: active = hit-call score of the fitted dose curve at least 0.9, where 1 is the maximum; inactive = score below 0.9.
Outcome codes: True for active, False for inactive

1. COP(=O)(OC)SCn1c(=O)oc2cc(Cl)cnc21 ... False
2. CCOP(=S)(Oc1cnc(C(C)(C)C)nc1)OC(C)C (stereo not drawn) ... False
3. CCCCSP(=O)(SCCCC)SCCCC ... False
4. CN(C)NC(=O)CCC(=O)O ... False
5. COP(=O)(NC(C)=O)SC (stereo not drawn) ... False
6. CCOC(=O)COc1cc(-c2nn(C)c(OC(F)F)c2Cl)c(F)cc1Cl ... False
7. CCNc1nc(Cl)nc(NC(C)(C)C#N)n1 ... False
8. Cc1ccn2nc(S(=O)(=O)Nc3c(F)cccc3F)nc2n1 ... False
9. CSc1nc(NC(C)C)nc(NC(C)C)n1 ... False
10. N#CSCSC#N ... False
11. FC(F)C(F)(F)OCC(Cn1cncn1)c1ccc(Cl)cc1Cl (stereo not drawn) ... True
12. S=C1NCCN1 ... False
13. CC1(C(=O)Nc2ccc(O)c(Cl)c2Cl)CCCCC1 ... False
14. CCCCOC(=O)c1ccccc1C(=O)O ... False
15. CC(COc1ccc(Oc2ccccc2)cc1)Oc1ccccn1 (stereo not drawn) ... False
16. CC(C)[C@H](C(=O)O[C@H](C#N)c1cccc(Oc2ccccc2)c1)c1ccc(Cl)cc1 ... False
17. CCOP(=O)(NC(C)C)Oc1ccc(SC)c(C)c1 (stereo not drawn) ... False
18. O=c1ccc(=O)[nH][nH]1 ... False
19. CON=C(C(=O)OC)c1ccccc1CON=C(C)c1cccc(C(F)(F)F)c1 ... False
20. COc1cc(OC)nc(Sc2cccc(Cl)c2C(=O)O)n1 ... False
21. Nc1nc(N)nc(NC2CC2)n1 ... False
22. Cc1cc(C2CC2)nc(Nc2ccccc2)n1 ... False
23. CCOP(=S)(OCC)Oc1cc(C)nc(C(C)C)n1 ... False
24. CNC(=O)Oc1cccc2c1OC(C)(C)O2 ... False
25. CCC(=O)Nc1ccc(Cl)c(Cl)c1 ... True
26. CC(Oc1cccc(Cl)c1)C(=O)O (stereo not drawn) ... False
27. CCOP(=O)(OCC)Oc1cc(C)nc(C(C)C)n1 ... False
28. CC1=NNC(=O)N(/N=C/c2cccnc2)C1 ... False

---

Read-out: xenobiotic metabolism (CYP1A2), CYP1A2 (gene 1544)
measurement notes: CLD_CYP1A2_24hr: CellzDirect (CLD) Gene Expression Assay for xenobiotic metabolism (CYP1A2) at 24 hours (AID 2283683)
Inconclusive results are not listed. Calls of active or inactive are those of the source. Rule for the calls: active = hit-call score of the fitted dose curve at least 0.9, where 1 is the maximum; inconclusive = response in the unintended direction; inactive = score below 0.9.
Classes used: y = active, n = inactive

1. CN(C)C(=O)Nc1cccc(C(F)(F)F)c1 ... y
2. CSC1=N[C@@](C)(c2ccccc2)C(=O)N1Nc1ccccc1 ... y
3. CCc1cnc(C2=NC(C)(C(C)C)C(=O)N2)c(C(=O)O)c1 (stereo not given) ... n
4. CCc1cccc(C)c1N(C(=O)CCl)C(C)COC (stereo not given) ... y
5. CC(COc1ccc(Oc2ccccc2)cc1)Oc1ccccn1 (stereo not given) ... n
6. Nc1c(Cl)cc([N+](=O)[O-])cc1Cl ... y
7. COP(=O)(OC)OC(Br)C(Cl)(Cl)Br (stereo not given) ... n
8. COP(=O)(NC(C)=O)SC (stereo not given) ... n
9. CCOP(=O)(SC(C)CC)N1CCSC1=O (stereo not given) ... n
10. CCOP(=S)(OCC)Oc1ccc([N+](=O)[O-])cc1 ... y
11. CN(C)NC(=O)CCC(=O)O ... n
12. CCOP(=S)(OCC)Oc1ccc2c(C)c(Cl)c(=O)oc2c1 ... y
13. CC[C@H](C)[C@H]1O[C@]2(C=C[C@@H]1C)C[C@@H]1C[C@@H](C/C=C(\C)[C@@H](O[C@H]3C[C@H](OC)[C@@H](O[C@H]4C[C@H](OC)[C@@H](NC)[C@H](C)O4)[C@H](C)O3)[C@@H](C)/C=C/C=C3\CO[C@@H]4[C@H](O)C(C)=C[C@@H](C(=O)O1)[C@]34O)O2 ... n
14. CCOP(=S)(OCC)SCCSCC ... y
15. CC(C)N(C(=O)SCC(Cl)=C(Cl)Cl)C(C)C ... n
